Origin of measurements: patent US8343961B2

- measured_on: Tec kinase (Homo sapiens, UniProt P42680)
- Sequence (P42680 1-631): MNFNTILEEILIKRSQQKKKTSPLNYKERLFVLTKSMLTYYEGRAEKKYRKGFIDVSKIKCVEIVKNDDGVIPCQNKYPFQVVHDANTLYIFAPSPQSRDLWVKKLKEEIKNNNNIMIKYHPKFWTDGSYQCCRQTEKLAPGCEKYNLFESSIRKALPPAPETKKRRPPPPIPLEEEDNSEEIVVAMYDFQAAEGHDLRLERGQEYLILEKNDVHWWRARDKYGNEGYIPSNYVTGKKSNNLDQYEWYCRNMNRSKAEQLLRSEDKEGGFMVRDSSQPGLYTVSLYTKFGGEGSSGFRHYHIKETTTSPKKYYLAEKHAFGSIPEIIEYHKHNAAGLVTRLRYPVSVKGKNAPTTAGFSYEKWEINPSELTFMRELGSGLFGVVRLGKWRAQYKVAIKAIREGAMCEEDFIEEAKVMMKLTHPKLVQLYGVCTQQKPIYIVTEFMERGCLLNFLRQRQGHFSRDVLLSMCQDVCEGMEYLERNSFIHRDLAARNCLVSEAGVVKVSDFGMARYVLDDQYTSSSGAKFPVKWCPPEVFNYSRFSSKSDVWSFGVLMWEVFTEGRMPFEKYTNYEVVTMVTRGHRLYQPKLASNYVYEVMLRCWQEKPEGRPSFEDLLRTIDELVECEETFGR
- assay_comment: Tec Kinase Activity Assay
- Assay type: biochemical
- recorded_conditions: read-out: Tec % INH, at 30 uM
reported_endpoint: inhibition at 30 µM

{"columns": ["molecule", "inhibition at 30 µM"],
 "data": [
  ["COc1ccc(OC)c(CN2CCN(c3nc(N)nc4[nH]cnc34)Cc3ccccc32)c1 [Compound 35]", "50 to 79%"]
]}

Prompt line: Recorded inhibition at 30 µM of Cc1ccccc1CN1CCN(c2nc(N)nc3[nH]ncc23)Cc2ccccc21 [Compound 12] , please.
Response line: 50 to 79%

Prompt line: Which measured inhibition at 30 µM value corresponds to Nc1nc(N2CCN(Cc3ccc(F)cc3F)c3ccccc3C2)c2cn[nH]c2n1 [Compound 38] ?
Response line: 50 to 79%

Prompt line: Which inhibition at 30 µM reading was recorded for the molecule Nc1nc(N2CCN(Cc3ccc(Cl)cc3)c3ccccc3C2)c2cn[nH]c2n1 [Compound 23] ?
Response line: < 50%

Prompt line: Entry Nc1nc(N2CCN(Cc3cccc(C(F)(F)F)c3)c3ccccc3C2)c2cn[nH]c2n1 [Compound 21] : reported inhibition at 30 µM = ?
Response line: 50 to 79%

---

- Tested on: MDA-MB-231
- assay_comment: MTS Cellular Assay, MDA-MB-231
- Format: cell-based
- recorded_conditions: Homo sapiens, MDA-MB-231, 72 hours
reported_endpoint: inhibition at 10 µM

Examples with answers:
{"columns": ["compound", "measured_on", "observed_result"],
 "data": [
  ["Nc1nc(N2CCN(Cc3ccccc3Cl)c3ccccc3C2)c2cn[nH]c2n1 [Compound 14]", "MDA-MB-231", "> 79%"],
  ["Nc1nc(N2CCN(CCCc3cccc(F)c3)c3ccccc3C2)c2nc[nH]c2n1 [Compound 39]", "MDA-MB-231", "> 79%"],
  ["Nc1nc(N2CCN(Cc3ccc(Cl)cc3Cl)c3ccccc3C2)c2cn[nH]c2n1 [Compound 32]", "MDA-MB-231", "< 50%"],
  ["COc1ccc(CN2CCN(c3nc(N)nc4[nH]ncc34)Cc3ccccc32)cc1OC [Compound 28]", "MDA-MB-231", "> 79%"],
  ["Nc1nc(N2CCN(Cc3cccc(C(F)(F)F)c3)c3ccccc3C2)c2cn[nH]c2n1 [Compound 21]", "MDA-MB-231", "> 79%"],
  ["Nc1nc(N2CCN(Cc3ccc(Cl)cc3)c3ccccc3C2)c2cn[nH]c2n1 [Compound 23]", "MDA-MB-231", "50 to 79%"],
  ["COc1ccc(OC)c(CN2CCN(c3nc(N)nc4[nH]ncc34)Cc3ccccc32)c1 [Compound 36]", "MDA-MB-231", "> 79%"],
  ["Nc1nc(N2CCN(CCCc3cccc(Cl)c3)c3ccccc3C2)c2cn[nH]c2n1 [Compound 8]", "MDA-MB-231", "< 50%"],
  ["Nc1nc(N2CCN(Cc3ccc(Cl)c(Cl)c3)c3ccccc3C2)c2cn[nH]c2n1 [Compound 43]", "MDA-MB-231", "< 50%"],
  ["CC(C)(C)c1ccc(CN2CCN(c3nc(N)nc4[nH]ncc34)Cc3ccccc32)cc1 [Compound 30]", "MDA-MB-231", "< 50%"]
]}

Shift focus to the following entry.
Prompt line: Given the entry CC(C)(C)c1ccc(CN2CCN(c3nc(N)nc4[nH]cnc34)Cc3ccccc32)cc1 [Compound 29] , report its measured inhibition at 10 µM.
Response line: < 50%
